System: Hippocampus
Test: Anticonvulsant activity in Sprague-Dawley rat hippocampus assessed as inhibition of population spike amplitude at 10 uM preincubated for 6 mins followed by compound washout measured after 10 mins by […]
Assay type: functional
Quick reference for inhibition at 10 µM among some compounds
Please state the figure in %; there is no need to write the unit.

Worked examples follow.
compound	inhibition at 10 µM, %
CCOC(=O)C1CCC(Nc2ccc(Br)cc2Br)=CC1=O (stereo not given)	35
CCOC(=O)C1C(=O)C=C(Nc2ccc(I)cc2I)CC1c1ccccc1 (stereo not given)	4
O=C1C=C(Nc2ccc(Br)cc2Br)CCC1	-23.7
COC(=O)C1C(=O)C=C(Nc2ccc(I)cc2I)CC1c1ccccc1 (stereo not given)	8.5

[ask] Value lookup for inhibition at 10 µM; key = COC(=O)C1C(=O)C=C(Nc2ccc(Br)cc2Br)CC1c1ccccc1 (stereo not given)
[reply] -72.2

[ask] So what's the measured inhibition at 10 µM for this one? CCOC(=O)C1C(=O)C=C(Nc2ccc(Cl)cc2Cl)CC1C (stereo not given)
[reply] -24.6

[ask] Please look up its inhibition at 10 µM: COC(=O)C1C(=O)C=C(Nc2ccc(Br)cc2Br)CC1C (stereo not given)
[reply] -25

[ask] Given the entry CC1(C)CCC(Nc2ccc(Br)cc2Br)=CC1=O , report its measured inhibition at 10 µM.
[reply] -18.2

[ask] I have this compound here, CCOC(=O)C1C(=O)C=C(Nc2ccc(Br)cc2Br)CC1C (stereo not given) , and I need its recorded inhibition at 10 µM.
[reply] -34.7

[ask] Value lookup for inhibition at 10 µM; key = CC1CC(=O)C=C(Nc2ccc(Br)cc2Br)C1 (stereo not given)
[reply] 8
